The molecules listed here are annotated with their MCC at 72 h.
test: Cytotoxicity against rat L6 cells after 72 hrs; format: cell-based; details: read-out: MIC
Could you give me the number in µg/mL? Just the number is fine.

[
  {
    "molecule": "COc1cc(O)c2c(c1-c1ccc(O)c3c(OC)cc(C)cc13)C[C@@H](C)N(C)[C@@H]2C [ANCISTROLIKOKINE A]",
    "MCC at 72 h [µg/mL]": 90
  },
  {
    "molecule": "COc1cc(O)c(-c2ccc(OC)c3c(O)cc(C)cc23)c2c1[C@H](C)N[C@H](C)C2 [ANCISTROLIKOKINE B]",
    "MCC at 72 h [µg/mL]": 30
  }
]

Please find the next molecule below.
In: I would be grateful if you could share the reported MCC at 72 h for COc1cc(C)cc2c(-c3c(O)cc(O)c4c3C[C@@H](C)N[C@@H]4C)ccc(O)c12 .
Out: 100
